molecular target: Thermolysin (Bacillus thermoproteolyticus)
Measured IC50, listed per entry for reference.
PROPERTY MEASURED: IC50 (µM)

1) O=C(N[C@H](CCN1C(=O)c2ccccc2C1=O)C(=O)NO)c1ccc(Oc2ccccc2)cc1 : 16
2) CC(C)ON(CC(=O)NO)S(=O)(=O)c1ccc(Br)s1 : 3.3
3) COc1ccc(S(=O)(=O)c2ccccc2CC(=O)NO)cc1 : 17
4) CCCCC(NOCc1ccccc1)C(=O)NO (configuration not stated) : 1.1
5) O=C(CCNS(=O)(=O)c1ccc(-c2ccccc2)cc1)NO : 30
6) O=C(Cc1ccccc1S(=O)(=O)c1ccc(OCCCN2C(=O)c3ccccc3C2=O)cc1)NO : 7
7) COc1ccc(S(=O)(=O)N(CC(C)C)[C@@H](C(=O)NO)C(C)C)cc1 : 103
